system: c-Src; experiment: phosphorylation enrichment, bacterial display (enrichment ratio); higher = better substrate or ligand; peptides without Tyr show the background
Experimental Readout: phosphorylation enrichment
API note: the answer field is a bare number with no unit suffix.

Value sought: phosphorylation enrichment, system c-Src, item SIKDKYVTALC [KCNH2_Y611_Y616C] . Result: 0.386

Form field, phosphorylation enrichment with c-Src, item ESDFTYSSSFE [SRPK2_Y427_YF] : 1.08

###

test system: Fer (mouse); experiment: phosphorylation enrichment, bacterial display (enrichment ratio); higher = better substrate or ligand; peptides without Tyr show the background
Criterion: phosphorylation enrichment meeting or surpassing 0.8. Met: YES. Not met: NO.

// known answers, use as guide
* RSFSPCDFQPC [TNS1_Y796_Y796C_YF] | NO
* GRSTCYWPRPR [GAGE12J_Y10_Y9C] | NO
* HFPDVYAWEQL [ALX3_Y181_R183W_YF] | YES

Is the recorded value of phosphorylation enrichment equal to or greater than 0.8 for this sequence? RLVTRYIFNRE [HLA-DQB1_Y62_Y58L_YF] NO

Decide: phosphorylation enrichment of AKRKNYAPVAM [CFAP47_Y557] >= 0.8? NO

Has QMVDMYASSYM [AVPR2_Y124_G122D] a recorded phosphorylation enrichment greater than or equal to 0.8? NO

###

target: Grb2 SH2 (UniProt P62993); assay: SH2 binding enrichment of the phosphorylated peptide, bacterial display (enrichment ratio); higher = better substrate or ligand; peptides without Tyr show the background
Sequence (P62993 whole entry, looked up): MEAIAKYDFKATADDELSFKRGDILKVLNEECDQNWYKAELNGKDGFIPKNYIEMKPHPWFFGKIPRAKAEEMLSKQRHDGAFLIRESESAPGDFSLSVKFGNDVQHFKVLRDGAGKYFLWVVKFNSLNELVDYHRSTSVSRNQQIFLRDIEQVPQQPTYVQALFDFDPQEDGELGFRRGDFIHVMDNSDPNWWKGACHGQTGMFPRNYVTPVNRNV
Experimental Readout: SH2 binding enrichment
# print the numeric value only

// known answers, use as guide
* QSSALYEDRFL [ASS1_Y83_YF] | 0.835
* NSRFTYKLEVK [USH2A_Y3747_YF] | 0.757
* MNPPPYSQLLS [FGF23_Y154_F157L] | 0.776
* GDYYRSLAEVA [YWHAG_Y133_Y133S] | 1.02

Now consider a different sequence.
Entry ASELGYVFQAI [UROD_Y133] ; SH2 binding enrichment = 0.986

###

The following sequences are listed with their measured phosphorylation enrichment values.
tested on: c-Abl (mouse); assay: phosphorylation enrichment, bacterial display (enrichment ratio); higher = better substrate or ligand; peptides without Tyr show the background
When you answer, write just the number.

- GTTIHYNYMCN [TP53_Y234_C229G]: 0.814
- HNGVSYFINLC [IGF2R_Y2024_YF]: 1.24
- TIQIMFGCDVG [HLA-A_Y123_Y123F]: 1.01

phosphorylation enrichment recorded for this sequence, KIIATYRLCSE [DNAH3_Y1586_V1583I] , is 0.693

###

target: FGFR3 (UniProt P22607); assay: phosphorylation enrichment, bacterial display (enrichment ratio); higher = better substrate or ligand; peptides without Tyr show the background
Sequence (P22607 whole entry, looked up): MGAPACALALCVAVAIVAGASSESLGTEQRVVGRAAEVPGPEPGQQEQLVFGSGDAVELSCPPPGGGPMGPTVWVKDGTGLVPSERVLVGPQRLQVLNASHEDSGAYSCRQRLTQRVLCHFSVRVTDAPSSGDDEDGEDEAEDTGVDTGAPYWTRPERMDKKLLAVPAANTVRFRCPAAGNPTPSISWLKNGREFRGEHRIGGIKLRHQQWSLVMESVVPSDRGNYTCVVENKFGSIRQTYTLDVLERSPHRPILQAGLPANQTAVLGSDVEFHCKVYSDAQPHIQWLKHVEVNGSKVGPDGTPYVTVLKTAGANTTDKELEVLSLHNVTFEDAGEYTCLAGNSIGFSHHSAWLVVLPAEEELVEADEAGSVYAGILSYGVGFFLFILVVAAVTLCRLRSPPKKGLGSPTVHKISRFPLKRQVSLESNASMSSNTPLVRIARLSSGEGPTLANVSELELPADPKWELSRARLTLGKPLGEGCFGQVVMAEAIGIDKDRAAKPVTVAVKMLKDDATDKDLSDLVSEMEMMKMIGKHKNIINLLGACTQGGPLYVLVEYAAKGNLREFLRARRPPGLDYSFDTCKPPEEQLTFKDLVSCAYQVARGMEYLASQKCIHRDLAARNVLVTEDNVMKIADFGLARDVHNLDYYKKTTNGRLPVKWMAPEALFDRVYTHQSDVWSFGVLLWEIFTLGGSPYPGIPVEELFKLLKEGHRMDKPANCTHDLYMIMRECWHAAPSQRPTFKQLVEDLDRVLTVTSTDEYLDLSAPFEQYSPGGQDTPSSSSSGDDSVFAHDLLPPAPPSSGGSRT
Experimental Readout: phosphorylation enrichment
Reply briefly: the number, and no unit.

Recorded results for 6 sequences are shown here.
• LFLACYFIGGG [UBD_Y161_C162F] = 1.05
• PHMQTYEVDHN [SDHB_Y61_L65H] = 0.783
• SHGKQYRVPSD [HHIPL2_Y395_R394Q] = 0.427
• SGPRRYTVAAL [TTR_Y125_I127V] = 0.423
• LRYDSYWSYCN [SLC20A2_Y433_S434W] = 3.72
• IQTDGDRAPEA [UHMK1_Y197_Y197D] = 0.88

The value of phosphorylation enrichment recorded for DISEPYEVFRI [IRF8_Y107_K108E_YF] when tested on FGFR3 (UniProt P22607) reads 0.725

With FGFR3 (UniProt P22607) as the test system, RSDEDYLFREE [POR_Y573_YF] showed phosphorylation enrichment of 1.34

Item AKRKNYAPVAM [CFAP47_Y557] was tested on FGFR3 (UniProt P22607); the reported phosphorylation enrichment is 0.371

# phosphorylation enrichment measured on FGFR3 (UniProt P22607) for item FLRTGYSVPFG [TGM1_Y370_YF] = 0.632

# phosphorylation enrichment measured on FGFR3 (UniProt P22607) for item SSLEDYVRETN [GIMAP6_Y176_G171S] = 0.641

Entry LDAFIYDAALL [GRIN2A_Y730_V734L] under FGFR3 (UniProt P22607) had phosphorylation enrichment of 0.902

Reported phosphorylation enrichment (FGFR3 (UniProt P22607)) for entry QTWKTYVRQQQ [SFI1_Y164] is 0.738

phosphorylation enrichment on FGFR3 (UniProt P22607) for IDSTPYRQWFE [RPS8_Y109_YF] is 0.551

Form: item IVEFAYNDKAV [PUM3_Y259_I264V_YF] ; test system FGFR3 (UniProt P22607); phosphorylation enrichment: 0.767

For the sequence LECEWYKNGVK [TTN_Y2112_P2107L] , the measured phosphorylation enrichment on FGFR3 (UniProt P22607) was 1.01

Query HDRNTYEKYLE [TF_Y666_G671E] on FGFR3 (UniProt P22607); phosphorylation enrichment returned: 0.748

Tested on FGFR3 (UniProt P22607), the item GSCQEYTGAPF [NAXD_Y85_G81S_YF] showed phosphorylation enrichment equal to 0.798

Measured phosphorylation enrichment for this entry GCKKRYDKDKP [THAP1_Y14_N12K] on FGFR3 (UniProt P22607): 0.703

Readout phosphorylation enrichment for IIWDSYTTNKM [GNB4_Y85] , test system FGFR3 (UniProt P22607), was 0.671

###

biological target: MERTK (UniProt Q12866); experiment: phosphorylation enrichment, bacterial display (enrichment ratio); higher = better substrate or ligand; peptides without Tyr show the background
Sequence (Q12866 whole entry, looked up): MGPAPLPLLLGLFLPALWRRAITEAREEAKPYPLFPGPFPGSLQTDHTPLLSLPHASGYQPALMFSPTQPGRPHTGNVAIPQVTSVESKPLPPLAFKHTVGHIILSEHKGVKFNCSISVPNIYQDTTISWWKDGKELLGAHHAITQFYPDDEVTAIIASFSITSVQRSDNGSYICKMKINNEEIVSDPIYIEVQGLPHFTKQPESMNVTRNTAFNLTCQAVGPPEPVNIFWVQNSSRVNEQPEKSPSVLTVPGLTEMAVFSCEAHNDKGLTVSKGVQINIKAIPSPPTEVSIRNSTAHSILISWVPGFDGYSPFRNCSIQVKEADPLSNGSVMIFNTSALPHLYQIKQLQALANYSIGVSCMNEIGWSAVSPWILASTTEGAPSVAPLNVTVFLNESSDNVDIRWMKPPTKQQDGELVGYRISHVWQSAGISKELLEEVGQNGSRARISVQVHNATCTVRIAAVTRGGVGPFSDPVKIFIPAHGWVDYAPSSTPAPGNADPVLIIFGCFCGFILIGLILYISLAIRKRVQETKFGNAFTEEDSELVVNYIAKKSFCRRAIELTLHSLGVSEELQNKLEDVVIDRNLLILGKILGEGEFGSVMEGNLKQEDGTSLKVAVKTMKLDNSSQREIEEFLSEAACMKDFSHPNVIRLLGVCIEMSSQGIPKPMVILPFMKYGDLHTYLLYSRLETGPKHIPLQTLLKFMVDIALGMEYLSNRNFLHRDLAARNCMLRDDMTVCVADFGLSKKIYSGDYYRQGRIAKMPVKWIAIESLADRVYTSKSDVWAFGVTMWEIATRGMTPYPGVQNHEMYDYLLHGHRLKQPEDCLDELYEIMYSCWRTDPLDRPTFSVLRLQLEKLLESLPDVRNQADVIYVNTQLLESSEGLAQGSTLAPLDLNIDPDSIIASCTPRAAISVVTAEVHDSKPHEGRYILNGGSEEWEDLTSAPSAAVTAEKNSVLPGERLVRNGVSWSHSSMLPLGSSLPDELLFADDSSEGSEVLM
Entries annotated with measured phosphorylation enrichment
A bare number is all that is needed in reply.

For orientation, consider the following solved cases.
- LQTFHYHGHSM [PDHA1_Y289_R288H_YF]: 0.501
- FGLDRYQCDCT [PTGS1_Y54]: 0.454
- CLAKMYYSAVD [CP_Y539]: 2.33

Short answer for TNYPLYLRSLE [MTM1_Y71_R69P] : phosphorylation enrichment was 0.551

Reported phosphorylation enrichment ( NPIGLYSAETL [LDB3_Y202] ) = 4.18

Lab note: measured phosphorylation enrichment of NLTLKYPIEHG [ACTA1_Y71_I66N] was 0.407

Form: sequence = SIKGKYVTALF [KCNH2_Y611_D609G_YF] ; phosphorylation enrichment = 0.414

###

target: c-Src SH2; experiment: SH2 binding enrichment of the phosphorylated peptide, bacterial display (enrichment ratio); higher = better substrate or ligand; peptides without Tyr show the background
Measured SH2 binding enrichment, listed per entry for reference.
Could you keep your reply to the number by itself?

These solved cases illustrate the format of a correct answer.
* HLITAYRAHGF [PDHA1_Y118] | 0.422
* LTFPDYLPCSV [SAG_Y129] | 0.472
* VGIMLYGVDSR [PKD1_Y3143] | 0.489
* TNEFEYDELIV [TGM1_Y136_D132N_YF] | 0.47
* SGGSSYGSGGG [KRT1_Y532] | 0.427

SH2 binding enrichment measured on SQPASYQRRFL [PPIG_Y320_L324F] = 0.407

Entry under test: TDKLFYIFTPG [SLC27A4_Y243_S247P_YF] . Its SH2 binding enrichment was 0.401

GET /value?item= PELIDYGKLRK [ACTN1_Y193] &field=SH2 binding enrichment returns 0.478

Reported SH2 binding enrichment ( NTTIHYNYMCN [TP53_Y234_C229N] ) = 2.42

// KIVYVYVKKRS [DNAI2_Y7_E2K] : SH2 binding enrichment value = 0.537

The value of SH2 binding enrichment measured for the sequence EQLRAYLEGLC [HLA-C_Y183_T187L] turned out to be 0.449

Lab note: measured SH2 binding enrichment of QSSALYEDRFL [ASS1_Y83_YF] was 0.65

Looking up KLNNEYLELNF [MME_Y497_YF] , I see its SH2 binding enrichment listed as 0.488

response.value for LKVDVYGRSHK [FUT3_Y222] (field: SH2 binding enrichment) = 0.561

###

molecular target: Hck (UniProt P08631); test: phosphorylation enrichment, bacterial display (enrichment ratio); higher = better substrate or ligand; peptides without Tyr show the background
Sequence (P08631 whole entry, looked up): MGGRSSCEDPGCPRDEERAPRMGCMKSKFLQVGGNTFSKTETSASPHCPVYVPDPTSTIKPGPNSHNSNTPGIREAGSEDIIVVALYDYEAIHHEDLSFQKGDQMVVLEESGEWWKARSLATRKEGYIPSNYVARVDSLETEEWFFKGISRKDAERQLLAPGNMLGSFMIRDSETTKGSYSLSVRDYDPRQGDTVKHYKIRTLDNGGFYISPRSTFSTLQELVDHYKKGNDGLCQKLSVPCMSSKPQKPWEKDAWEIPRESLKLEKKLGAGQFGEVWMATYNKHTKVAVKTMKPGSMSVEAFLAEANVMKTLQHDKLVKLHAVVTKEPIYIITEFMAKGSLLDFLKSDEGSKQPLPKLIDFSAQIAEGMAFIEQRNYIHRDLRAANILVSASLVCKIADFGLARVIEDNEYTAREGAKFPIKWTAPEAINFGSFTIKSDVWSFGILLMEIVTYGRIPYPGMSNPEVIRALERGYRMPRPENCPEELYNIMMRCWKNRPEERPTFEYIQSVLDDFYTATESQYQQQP
Classification field: 1 = phosphorylation enrichment at or over 0.6; 0 = phosphorylation enrichment under 0.6.

The following sequences have reported results that may help.
- TCRPPYYHRNC [HGD_Y333_F329C]: 0
- LREIRYQGGNR [VWF_Y1570_V1565L]: 0
- QRMGTYGVRAA [ICAM2_Y260]: 1
- CTIIHYNFMCN [TP53_Y234_T231I_YF]: 0

Then there is this sequence:
Quick check, phosphorylation enrichment >= 0.6? ENAGYYFRISA 0
